Where these numbers come from: the NIST ThermoML archive (doi:10.1021/je100315g)

- Reported Conditions: 298.15 K; 101 kPa; Liquid
Numbers after ± are expanded uncertainties.
We begin with a simple list: items and their reported mass density.

| Compound | mass density |
| --- | --- |
| C1CCOC1 [tetrahydrofuran] | 881.98 ± 0.46 kg/m3 |
| CCn1cc[n+](C)c1.O=S(=O)([N-]S(=O)(=O)C(F)(F)F)C(F)(F)F | 1516.96 ± 0.94 kg/m3 |
| CCCC[n+]1ccn(C)c1.O=S(=O)([N-]S(=O)(=O)C(F)(F)F)C(F)(F)F | 1436.83 ± 0.81 kg/m3 |
| C[S+](C)[O-] [dimethyl sulfoxide] | 1095.3 ± 0.28 kg/m3 |
| CC#N | 776.52 ± 0.59 kg/m3 |

----------
- Reported Conditions: 308.15 K; 101 kPa; Liquid
We begin with a simple list: items and their reported mass density.

| Compound | Scale Unit | mass density |
| --- | --- | --- |
| CCn1cc[n+](C)c1.O=S(=O)([N-]S(=O)(=O)C(F)(F)F)C(F)(F)F | kg/m3 | 1506.8 |
| C[S+](C)[O-] [dimethyl sulfoxide] | kg/m3 | 1085.27 |
| CCCC[n+]1ccn(C)c1.O=S(=O)([N-]S(=O)(=O)C(F)(F)F)C(F)(F)F | kg/m3 | 1427.16 |
| CC#N [acetonitrile] | kg/m3 | 765.68 |
| C1CCOC1 [tetrahydrofuran] | kg/m3 | 870.96 |

----------
- Reported Conditions: 303.13 K; 101 kPa; Liquid
Label Yes when mass density is at or above 1000 kg/m3; otherwise label No.

| Compound | Label Value |
| --- | --- |
| CC#N | No |
| C[S+](C)[O-] [dimethyl sulfoxide] | Yes |
| CCCC[n+]1ccn(C)c1.O=S(=O)([N-]S(=O)(=O)C(F)(F)F)C(F)(F)F | Yes |
| CCn1cc[n+](C)c1.O=S(=O)([N-]S(=O)(=O)C(F)(F)F)C(F)(F)F | Yes |
| C1CCOC1 [tetrahydrofuran] | No |

----------
- Reported Conditions: 293.15 K; 101 kPa; Liquid
Sorting guide: entries reporting mass density beneath 1000 kg/m3 go in the t pile, the rest go in the f pile.

| Molecule | Label Value |
| --- | --- |
| CCn1cc[n+](C)c1.O=S(=O)([N-]S(=O)(=O)C(F)(F)F)C(F)(F)F | f |
| C[S+](C)[O-] [dimethyl sulfoxide] | f |
| C1CCOC1 [tetrahydrofuran] | t |
| CC#N [acetonitrile] | t |
| CCCC[n+]1ccn(C)c1.O=S(=O)([N-]S(=O)(=O)C(F)(F)F)C(F)(F)F | f |

----------
- Reported Conditions: 313.15 K; 101 kPa; Liquid
We begin with a simple list: items and their reported mass density.

| Compound | Scale Unit | mass density |
| --- | --- | --- |
| C[S+](C)[O-] [dimethyl sulfoxide] | kg/m3 | 1080.27 |
| CCCC[n+]1ccn(C)c1.O=S(=O)([N-]S(=O)(=O)C(F)(F)F)C(F)(F)F | kg/m3 | 1422.36 |
| CCn1cc[n+](C)c1.O=S(=O)([N-]S(=O)(=O)C(F)(F)F)C(F)(F)F | kg/m3 | 1501.74 |
| CC#N | kg/m3 | 760.2 |
